Data provenance: ChEMBL document CHEMBL1961873

assay target: Receptor tyrosine-protein kinase erbB-2 (Homo sapiens);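 also: each value is the mean percent inhibition of ERBB2 over replicate measurements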
condition context: at 0.1 µM
# inhibition values compiled below
// return numeric value only (unit: %, not printed)

Here's what some known entries look like.
Cc1ccc(NC(=O)CC2CC2)cc1-c1ccc(C(=O)NCC2CC2)cc1 :: 0.13
ON=C1CCc2cc(-c3nc(C4CCNCC4)[nH]c3-c3ccncc3)ccc21 :: -0.06
c1ccc(Cc2nc3ccc(Nc4ncnc5ccccc45)cc3[nH]2)cc1 :: 2.07
COC(=O)c1ccc2c(c1)C(=Cc1cc(Br)c(O)c(Br)c1)C(=O)N2 :: -0.98
NC(=O)c1sc(-n2cnc3ccccc32)cc1OCc1ccccc1Br :: 0.61

Ask | Would you kindly share the measured inhibition for Nc1ccc(C#Cc2cncnc2Nc2ccc(OCc3cccc(F)c3)c(Cl)c2)cc1 ?
Reply | 5.63

Ask | Give the measured inhibition of COc1cccc(-n2nc(C)c3c(N/N=C(\C)c4ccncc4)ncnc32)c1 .
Reply | 0.07

Ask | Bench note: what inhibition did CN(C)c1cc2c(Nc3ccc4c(cnn4Cc4ccccc4)c3)ncnc2cn1 show?
Reply | 53.4

Ask | # lookup: inhibition of CCS(=O)(=O)c1ccc(OC)c(Nc2nccc(N(C)c3ccc4c(C)n[nH]c4c3)n2)c1
Reply | 7.28

Ask | Query: inhibition; subject: CCn1c(-c2nonc2N)nc2c(C#CC(C)(C)O)nc(OCCNC)cc21
Reply | 0.68

Ask | Need inhibition, item CC(C)c1ccc(Nc2nccc(-c3cnn4ncccc34)n2)cc1
Reply | 0.95

Ask | For the compound CCCN1CCCC(c2ccc(Nc3nc(Nc4cc(F)ccc4C(N)=O)c4cc[nH]c4n3)c(OC)c2)C1 (stereo not given) , what inhibition is on record?
Reply | 2.27

Ask | Recorded inhibition of Cc1ccc2c(c1)/C(=N/Nc1ccc(S(N)(=O)=O)cc1)C(=O)N2 , please.
Reply | 0.1

Ask | If you can, please state the reported inhibition value of COc1ccc2ncnc(Nc3ccc(OCc4ccccc4)cc3)c2c1 .
Reply | 1.73

Ask | // inhibition lookup, key: Cc1nc(-c2ccccc2)n2nc(NCCCN3CCOCC3)ncc12
Reply | 1.95

Ask | What value of inhibition has been recorded for this entry: Nc1nccc(-c2c(-c3ccc(F)cc3)ncn2CCCN2CCOCC2)n1
Reply | 4.07

Ask | Which inhibition value is on record for Cc1ccc(O)cc1Nc1ccnc2ccc(S(C)(=O)=O)cc12 ?
Reply | 4.44

Ask | // inhibition lookup, key: NS(=O)(=O)c1ccc(-c2cc3ccncc3cc2OCc2ccccc2)cc1
Reply | 2.03
